The origin of these recorded values is ChEMBL document CHEMBL3120091.

# pD2 values compiled below
system: Stomach; assay: Myorelaxant activity in New Zealand white rabbit gastric fundus smooth muscle assessed as relaxation of noradrenaline-induced contraction; format: functional, Oryctolagus cuniculus
Lab note: record the figure alone, no unit after it.

Sample records with pD2:
>  <COMPOUND>
CC1(C)CCC2=C(C1=O)C(c1c[nH]c3cc(Br)ccc13)C1=C(CCC(C)(C)C1=O)N2

>  <TARGET_UNDER_TEST>
Stomach

>  <ASSAY_ENDPOINT>
pD2

>  <EXPERIMENTAL_VALUE>
4.54

$$$$
>  <COMPOUND>
Cn1c(C2C3=C(CC(C)(C)CC3=O)NC3=C2C(=O)CC(C)(C)C3)cc2ccccc21

>  <TARGET_UNDER_TEST>
Stomach

>  <ASSAY_ENDPOINT>
pD2

>  <EXPERIMENTAL_VALUE>
4.1

$$$$
>  <COMPOUND>
CC(N/C(=N\C#N)Nc1ccncc1)C(C)(C)C (stereo not drawn) [PINACIDIL ANHYDROUS]

>  <TARGET_UNDER_TEST>
Stomach

>  <ASSAY_ENDPOINT>
pD2

>  <EXPERIMENTAL_VALUE>
3.9

$$$$
>  <COMPOUND>
Cn1cc(C2C3=C(CC(C)(C)CC3=O)NC3=C2C(=O)CC(C)(C)C3)c2ccccc21

>  <TARGET_UNDER_TEST>
Stomach

>  <ASSAY_ENDPOINT>
pD2

>  <EXPERIMENTAL_VALUE>
4.28

$$$$
>  <COMPOUND>
CC1(C)CC(=O)C2=C(C1)NC1=C(C(=O)CC(C)(C)C1)C2c1c[nH]c2ccc(Br)cc12

>  <TARGET_UNDER_TEST>
Stomach

>  <ASSAY_ENDPOINT>
pD2

>  <EXPERIMENTAL_VALUE>
3.85

$$$$
>  <COMPOUND>
CC1(C)CC(=O)C2=C(C1)NC1=C(C(=O)CC(C)(C)C1)C2c1c[nH]c2cc(Br)ccc12

>  <TARGET_UNDER_TEST>
Stomach

>  <ASSAY_ENDPOINT>
pD2

>  <EXPERIMENTAL_VALUE>
4.25

$$$$

Which pD2 is reported for this compound? Cn1c(C2C3=C(CCC(C)(C)C3=O)NC3=C2C(=O)C(C)(C)CC3)cc2ccccc21
4.6

Also need CC1(C)CCC2=C(C1=O)C(c1c[nH]c3ccc(Br)cc13)C1=C(CCC(C)(C)C1=O)N2 , thanks.
4.46
